Kindly supply the reported EC50 values for the records listed here.
- study_target: DLL4 (human, UniProt Q9NR61)
- Sequence (Q9NR61 27-524): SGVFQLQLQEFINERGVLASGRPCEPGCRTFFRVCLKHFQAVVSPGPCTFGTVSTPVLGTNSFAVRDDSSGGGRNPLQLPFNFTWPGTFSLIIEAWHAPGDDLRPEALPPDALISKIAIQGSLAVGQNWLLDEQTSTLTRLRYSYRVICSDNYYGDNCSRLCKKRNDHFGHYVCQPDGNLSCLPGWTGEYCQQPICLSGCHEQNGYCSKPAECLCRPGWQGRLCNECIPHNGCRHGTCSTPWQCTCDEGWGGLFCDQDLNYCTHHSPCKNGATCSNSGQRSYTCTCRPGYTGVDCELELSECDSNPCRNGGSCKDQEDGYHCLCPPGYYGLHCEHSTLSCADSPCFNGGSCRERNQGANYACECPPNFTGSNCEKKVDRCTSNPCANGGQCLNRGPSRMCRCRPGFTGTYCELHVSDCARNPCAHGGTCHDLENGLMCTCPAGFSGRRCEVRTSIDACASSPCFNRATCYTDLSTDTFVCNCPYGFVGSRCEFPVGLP
- test_summary: ELISA
Numbers only, in nM.

Could you tell me EC50 for each of these binders? They are listed below.
1. DVD522 DLL4 arm (antibody, V domains shown, DVD-Ig inner) VH: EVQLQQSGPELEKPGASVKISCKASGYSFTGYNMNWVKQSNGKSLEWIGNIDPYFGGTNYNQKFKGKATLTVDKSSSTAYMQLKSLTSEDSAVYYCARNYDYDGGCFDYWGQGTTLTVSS VL: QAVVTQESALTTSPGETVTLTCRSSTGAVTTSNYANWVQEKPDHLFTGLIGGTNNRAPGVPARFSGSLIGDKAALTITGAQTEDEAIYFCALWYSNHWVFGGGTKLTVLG
2. DVD469 DLL4 arm (antibody, DVD-Ig outer) chain 1: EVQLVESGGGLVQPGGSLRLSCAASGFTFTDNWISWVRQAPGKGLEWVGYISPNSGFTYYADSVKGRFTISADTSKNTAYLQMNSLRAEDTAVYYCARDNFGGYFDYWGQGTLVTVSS chain 2: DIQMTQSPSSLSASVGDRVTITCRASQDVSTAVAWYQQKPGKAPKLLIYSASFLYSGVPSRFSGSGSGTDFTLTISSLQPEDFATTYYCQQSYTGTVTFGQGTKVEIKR
3. DVD451 DLL4 arm (antibody, V domains shown, DVD-Ig outer) VH: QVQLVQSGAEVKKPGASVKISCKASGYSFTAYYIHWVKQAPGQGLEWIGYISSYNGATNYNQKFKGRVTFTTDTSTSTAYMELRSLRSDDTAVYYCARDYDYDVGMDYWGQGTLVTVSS VL: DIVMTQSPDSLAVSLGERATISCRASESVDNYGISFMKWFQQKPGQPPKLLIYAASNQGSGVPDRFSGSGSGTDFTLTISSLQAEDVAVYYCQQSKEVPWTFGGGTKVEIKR

0.48
2.78
0.4

The origin of these recorded values is patent US9029508.
